Tested on: EKVX NSCLC
assay method text: NCI tumour cell line growth inhibition, 48 h
measured quantity: TGI (µM)
Return type: number; implicit unit µM.

>>> measured_result("C/C(=N\\Nc1nc2ccccc2o1)c1cc2ccccc2cn1")
1.25

Alright, here's another molecule for you.
Identify the reported TGI for the following entry. O=C1CCC(N2C(=O)c3cccc(NCCOCCOCCNC(=O)c4cc5c(o4)C(=O)c4ccccc4C5=O)c3C2=O)C(=O)N1 (centres undefined)
8.39

###

Test system: UO-31 renal
assay method text: NCI tumour cell line growth inhibition, 48 h
Known GI50 of a selection of compounds

Some compounds with known GI50 results, for comparison:
>>> measured_result("CN1CCN(Cc2ccc(NC(=O)c3cccc(C#Cc4c(N)ncc5ccc(F)cc45)c3)cc2C(F)(F)F)CC1")
"0.533 µM"
>>> measured_result("COC(=O)CCCNC(=O)C(=O)c1c(O)c(O)c(C(C)C)c2cc(C)c(-c3c(C)cc4c(C(C)C)c(O)c(O)c(C(=O)C(=O)NCCCC(=O)OC)c4c3O)c(O)c12")
"0.558 µM"

For C=C1C(=O)O[C@H]2[C@H]1CC/C(Cn1cc(-c3ccsc3)nn1)=C\CC[C@@]1(C)O[C@@H]21 , write its GI50.
1.35 µM

Answer with the recorded GI50 of COc1ccc(-c2cc(-c3ccc(Cl)cc3)nc(SCCCCCCC(=O)NO)n2)cc1 only.
0.758 µM

###

System: HCT-15 colon
assay method text: NCI tumour cell line growth inhibition, 48 h; in the data active means GI50 below about 0.43 µM; inactive means the rest
I would appreciate it if you answered using one of these outcomes: active, inactive

See these solved cases before continuing.
>>> assigned_label("Cc1ccc2c(c1)-c1oc(=O)c(-c3cc4ccccc4oc3=O)cc1C(O)O2 (stereo not drawn)")
"inactive"
>>> assigned_label("C=C(C)[C@@H]1CC[C@]2(CN)CC[C@]3(C)[C@H](CC[C@@H]4[C@@]5(C)CCC(N)[C@@](C)(CO)[C@@H]5CC[C@]43C)[C@@H]12 (stereo partly drawn)")
"inactive"
>>> assigned_label("CCCCCC(=C/c1ccccc1)/C=N/N=C(N)N")
"inactive"
>>> assigned_label("C[C@@]1(O)CCC[C@H]1n1c(=O)c(C(F)F)cc2cnc(NC3CCN(S(C)(=O)=O)CC3)nc21")
"inactive"
>>> assigned_label("CCN(CC)CCOc1ccc(Cc2ccccc2)cc1")
"inactive"
>>> assigned_label("CSC1SCC2C(=O)N(C)C(C(C)C)C(=O)OCC(NC(=O)c3cnc4ccccc4n3)C(=O)NC(C)C(=O)N(C)C1C(=O)N(C)C(C(C)C)C(=O)OCC(NC(=O)c1cnc3ccccc3n1)C(=O)NC(C)C(=O)N2C (stereo not drawn)")
"active"
>>> assigned_label("COc1ccc2c(c1)c(-c1ccc(-c3cn(C)c4ccc(OC)cc34)o1)cn2C")
"inactive"

Now turn to the next compound.
What did the test return for O=C1CCC(N2C(=O)c3cccc(NCCOCCOCCNC(=O)c4cc5c(o4)C(=O)c4ccccc4C5=O)c3C2=O)C(=O)N1 (stereo not drawn) ?
inactive

###

System: MDA-MB-231 breast
assay method text: NCI tumour cell line growth inhibition, 48 h
Where a SMILES comes first, the peptide text is derived from it. [ ]: non-standard residue; d: D form. The star is where a group is joined. ξ: configuration not given here. ξPhe(4-NO2) = NC(Cc1ccc([N+](=O)[O-])cc1)C(=O)O; Boc = CC(C)(C)OC(=O)*
Classify by measured TGI: met if it is equal to or exceeds 4 µM, not met if it is smaller.

>>> assigned_label("O=C1CCC(N2C(=O)c3cccc(NCCOCCOCCNC(=O)c4cc5c(o4)C(=O)c4ccccc4C5=O)c3C2=O)C(=O)N1 (centres undefined)")
"met"
>>> assigned_label("Cc1cc(=O)n2nc(CSc3n[nH]c(=S)s3)sc2n1")
"met"
>>> assigned_label("CC1OC(OC2C[C@](O)(C(=O)CBr)Cc3c(O)c4c(c(O)c32)C(=O)c2ccccc2C4=O)C(F)C(O)C1O (some centres undefined)")
"met"
>>> assigned_label("O=C(Nc1ccc(N2CCNCC2)cn1)c1[nH]ncc1Nc1ncnc2sccc12")
"not met"
>>> assigned_label("CCNC(=O)CNC(=O)C(Cc1ccc([N+](=O)[O-])cc1)NC(=O)OC(C)(C)C (centres undefined) (Boc-[ξPhe(4-NO2)]-Gly-NHEt)")
"met"
>>> assigned_label("COC(=O)CCCNC(=O)C(=O)c1c(O)c(O)c(C(C)C)c2cc(C)c(-c3c(C)cc4c(C(C)C)c(O)c(O)c(C(=O)C(=O)NCCCC(=O)OC)c4c3O)c(O)c12")
"not met"
>>> assigned_label("N#Cc1ccc(NC(=O)Nc2nc3ccc(OC(F)(F)F)cc3s2)cc1")
"not met"
>>> assigned_label("Cn1c(O)c(C=Nc2ccc(Cl)cc2Cl)c(=O)n(C)c1=O")
"met"

Query compound follows.
Please tell me: is the compound CCOC(OCC)[C@H](N)[C@@H](O)[C@@H](O)[C@H]1COC(C)(C)O1 at or over 4 µM in terms of TGI?
met

###

System: NCI/ADR-RES ovarian
assay method text: NCI tumour cell line growth inhibition, 48 h
measured quantity: TGI

>>> measured_result("COc1cc(C2SCC(=O)N2NC(=O)c2ccc(NC(C)=O)cc2OC)ccc1O (stereo not given)")
"> 100 µM"
>>> measured_result("CNC(=S)N(C1CCCCC1)C1CCCCC1")
"> 100 µM"
>>> measured_result("O=c1c(-c2nc3ccccc3[nH]2)cc2ccccc2n1Cc1cn(Cc2ccccc2Cl)nn1")
"4.22 µM"

// next item, TGI requested
Recall and state the measured TGI for COC(=O)[C@H](Cc1cn(C)cn1)NC(=O)[C@@H](NC(=O)Nc1cc(C(F)(F)F)cc(C(F)(F)F)c1)C(C)(C)C .
> 10 µM

###

System: NCI-H226 lung
assay method text: NCI tumour cell line growth inhibition, 48 h; in the data active means GI50 below about 0.43 µM; inactive means the rest
Entry note: the call must match one of active, inactive

Field: example entries. Status: answers known.
>>> assigned_label("N#Cc1ccc(NC(=O)Nc2nc3ccc(OC(F)(F)F)cc3s2)cc1")
"inactive"
>>> assigned_label("CCCCCCCCCCCCC(NC(C)=O)(C(=O)OCC)C(=O)OCC")
"inactive"

Dear all, I need the recorded test outcome for CCN(CC)c1ccc(/C=N/NC(=O)c2ccccc2Nc2ccnc(C(F)(F)F)c2)c(O)c1 , thank you.
active

Field: outcome | Entry: CCC1(N)C(=O)OCc2c1cc1n(c2=O)Cc2cc3ccccc3nc2-1 (stereo not given)
inactive

Hey, what did the test say about COc1ccccc1N1CCN(CCCOc2ccc(C(=O)/C=C3/C(=O)Nc4ccccc43)cc2)CC1 ?
inactive

###

Test system: 786-0 renal
assay method text: NCI tumour cell line growth inhibition, 48 h
measured quantity: TGI

Sample answers from the record:
>>> measured_result("CN[C@H]1CC[C@]23C[C@]24CC[C@]2(C)[C@@H]([C@H](C)N(C)C)CC[C@@]2(C)[C@@H]4CC[C@H]3C1(C)C")
"19.8 µM"
>>> measured_result("CCOc1ncnc2ccc(Cl)c(I)c12")
"> 100 µM"
>>> measured_result("O=P(O)(O)CC1OC(CO)C(O)C1O (stereo not given)")
"> 100 µM"
>>> measured_result("COc1c(Cl)[c]([Hg][O]C(C)=O)c(NCC(C)=O)c(OC)[c]1[Hg][O]C(C)=O")
"12.9 µM"

Hello, please tell me recorded TGI for this one: NS(=O)(=O)c1nnc(NC(=O)/C=C/C(=O)O)s1
> 100 µM

###

Some molecules, each annotated with its measured TGI.
Tested on: RXF 393 renal
assay method text: NCI tumour cell line growth inhibition, 48 h
Square brackets hold non-standard residues; d marks the D form. Peptide text beside a SMILES is read from it. Phe(4-NO2) = N[CH](Cc1ccc([N+](=O)[O-])cc1)C(=O)O

These solved cases illustrate the format of a correct answer.
>>> measured_result("COC(=O)CCC(NC(=O)C(CCC(=O)OC)NC(=O)C(CCC(=O)OC)NC(=O)C(CCC(=O)OC)NC(=O)C(CCC(=O)OC)NC(=O)C(Cc1ccc([N+](=O)[O-])cc1)NC(=O)C(CCC(=O)OC)NC(=O)C(CCC(=O)OC)NC(=O)C(CCC(=O)OC)NC(=O)C(CCC(=O)OC)NC(=O)C(CCC(=O)OC)NC(C)=O)C(N)=O (stereo unspecified) (Ac-E(OMe)E(OMe)E(OMe)E(OMe)E(OMe)[Phe(4-NO2)]E(OMe)E(OMe)E(OMe)E(OMe)E(OMe)-NH2; configuration not given here)")
"> 100 µM"
>>> measured_result("COc1c(Cl)[c]([Hg][O]C(C)=O)c(NCC(C)=O)c(OC)[c]1[Hg][O]C(C)=O")
"30.4 µM"
>>> measured_result("COc1cc2c(cc1OC)-c1ncc3cc(OC)c(OC)c(OC)c3c1C2")
"85.8 µM"
>>> measured_result("COc1cc(OC)cc(C(=O)Cc2c(C(=O)c3ccccc3)c3ccccc3n2C(=O)c2ccccc2)c1")
"> 100 µM"
>>> measured_result("O=C(Nc1nccs1)NS(=O)(=O)n1cnc2ccccc21")
"> 100 µM"

We now examine a further molecule.
Enter measured TGI, system RXF 393 renal, for the molecule shown: COc1ccc(C(=O)N(Cc2cccnc2)C(=S)N(Cc2cccnc2)C(=O)c2ccc(OC)cc2)cc1
> 100 µM
